log10 IC50 values by entry
test system: HT-29 wt cell line; test: Anti-proliferative effect on HT-29 wt cell line (MTT assay); format: cell-based, human; settings: Homo sapiens, HT-29 wt cells, incubation 48 to 96 hours, medium with 10% FCS
Square brackets hold non-standard residues; d marks the D form. Peptide text beside a SMILES is read from it. * marks the point of attachment. NMeVal(N-(CH2)3COOH) = CC(C)[C@@H](C(=O)*)N(C)CCCC(=O)O; Dolaproine = CO[C@@H]([C@@H]1CCCN1)[C@@H](C)C(=O)O; Dil = CC[C@H](C)[C@H](NC)[C@@H](CC(=O)O)OC; X3 = CC(C)[C@@H](C(=O)*)N(C)CCCCCC(=O)O; NMe(benzyl) = CN(Cc1ccccc1)*; X2 = c1ccc2c(CO*)cccc2c1; NHBn = c1ccc(CN*)cc1; OBn = c1ccc(CO*)cc1
Plainly stated, the numbers are log10 of IC50 given in nM.

# compound, recorded-measurement
records = [
    ("CCCNC(=O)[C@]1(NC(=O)[C@H](C)[C@@H](OC)[C@@H]2CCCN2C(=O)C[C@@H](OC)[C@H]([C@@H](C)CC)N(C)C(=O)[C@@H](NC(=O)[C@H](C(C)C)N(C)CCCC(=O)O)C(C)C)C[C@@H]1c1ccccc1", -0.10),
    ("CC[C@H](C)[C@@H]([C@@H](CC(=O)N1CCC[C@H]1[C@H](OC)[C@@H](C)C(=O)N[C@@H](Cc1c[nH]c2ccccc12)C(=O)NCc1ccccc1)OC)N(C)C(=O)[C@@H](NC(=O)[C@H](C(C)C)N(C)CCCC(=O)O)C(C)C [Example 16] ({NMeVal(N-(CH2)3COOH)}-V[Dil][Dolaproine]W-NHBn)", -1.00),
    ("CC[C@H](C)[C@@H]([C@@H](CC(=O)N1CCC[C@H]1[C@H](OC)[C@@H](C)C(=O)N[C@@H](Cc1c[nH]c2ccccc12)C(=O)NCc1ccccc1)OC)N(C)C(=O)[C@@H](NC(=O)[C@H](C(C)C)N(C)CCCCCC(=O)O)C(C)C [Example 28] (X3-V[Dil][Dolaproine]W-NHBn)", 0.11),
    ("CC[C@H](C)[C@@H]([C@@H](CC(=O)N1CCC[C@H]1[C@H](OC)[C@@H](C)C(=O)N[C@H](COCc1ccc(C(=O)OC)cc1)Cc1ccccc1)OC)N(C)C(=O)[C@@H](NC(=O)[C@H](C(C)C)N(C)CCCC(=O)O)C(C)C", 0.18),
    ("CC[C@H](C)[C@@H]([C@@H](CC(=O)N1CCC[C@H]1[C@H](OC)[C@@H](C)C(=O)N[C@@H](Cc1ccccc1)C(=O)N(C)Cc1ccccc1)OC)N(C)C(=O)[C@@H](NC(=O)[C@H](C(C)C)N(C)CCCC(=O)O)C(C)C [Example 9] ({NMeVal(N-(CH2)3COOH)}-V[Dil][Dolaproine]F-{NMe(benzyl)})", 0.64),
]

[Q] Would you mind telling me what log10 IC50 value was observed for CC[C@H](C)[C@@H]([C@@H](CC(=O)N1CCC[C@H]1[C@H](OC)[C@@H](C)C(=O)N[C@@H](Cc1c[nH]c2ccccc12)C(=O)OCc1ccccc1)OC)N(C)C(=O)[C@@H](NC(=O)[C@H](C(C)C)N(C)CCCC(=O)O)C(C)C [Example 8] ({NMeVal(N-(CH2)3COOH)}-V[Dil][Dolaproine]W-OBn) ?
[A] -0.30

[Q] Would you mind telling me what log10 IC50 value was observed for `CC[C@H](C)[C@@H]([C@@H](CC(=O)N1CCC[C@H]1[C@H](OC)[C@@H](C)C(=O)N[C@H](COCc1ccccc1)Cc1ccccc1)OC)N(C)C(=O)[C@@H](NC(=O)[C@H](C(C)C)N(C)CCCC(=O)O)C(C)C` ?
[A] -1.00

[Q] Would you mind telling me what log10 IC50 value was observed for CC[C@H](C)[C@@H]([C@@H](CC(=O)N1CCC[C@H]1[C@H](OC)[C@@H](C)C(=O)N[C@@H](Cc1ccccc1)C(=O)OCc1cccc2ccccc12)OC)N(C)C(=O)[C@@H](NC(=O)[C@H](C(C)C)N(C)CCCC(=O)O)C(C)C [Example 1] ({NMeVal(N-(CH2)3COOH)}-V[Dil][Dolaproine]F-X2) ?
[A] -1.00

Where do these numbers come from? They come from patent US8987209B2.
